Values compiled from patent US7569724B2.

Give melting point for every item shown.

melting point for "O=C(CCCCCCC(=O)NCc1ccccc1)NO" is 126 to 126.5 °C

Summary for this compound, "O=C(/C=C/c1cccc(NC(=O)CCCc2ccccc2)c1)NO" : melting point is 152 to 153 °C

Record "CN(C)c1ccc(C(=O)NCCCCCC(=O)NO)c2ccccc12" . Reported melting point: 135 to 136 °C

Entry "COc1ccc(C(=O)NCCCCCC(=O)NO)cc1" ; melting point = 131 to 132 °C

###

# System: HeLa cells
# Assay info: Secondary assay: cell proliferation WST-1, HeLa
# Type: cell-based
# Experimental conditions: Homo sapiens, 48 h, read-out: Cell Proliferation Inhibition WST-1 (IC50 unless otherwise specified) HeLa
Consider the following molecules; for each one, report its pIC50.
For clarity, pIC50 is expressed as the negative log10 of concentration in mol/L.

Given item "O=C(/C=C/c1cccc(OC(F)(F)F)c1)NCCCCCC(=O)NO" , the value recorded as its pIC50 is 4.41

Reported pIC50 for "O=C(CCCCCCCNC(=O)c1ccc2ccccc2c1)NO" was 5.44

pIC50 reported for this molecule "O=C(/C=C/c1cccc(Oc2ccccc2)c1)NCCCCCC(=O)NO" : 4.57

Entry O=C(/C=C/C#Cc1cccc(NS(=O)(=O)c2ccccc2)c1)NO [Oxamflatin, reference compound] — recorded pIC50 = 5.96

Kindly note the recorded pIC50 for "C/C(C(=O)NCCCCCC(=O)NO)=C(/C)c1ccccc1" , which is 4.49

"O=C(/C=C/c1ccc(C(F)(F)F)cc1)NCCCCCC(=O)NO" has a reported pIC50 of 5.23

"O=C(CCCCCCC(=O)NCCCc1ccccc1)NO" yielded pIC50 of 4.82

pIC50 recorded for this molecule, "O=C(/C=C/c1cccc(NC(=O)/C=C/C=C/c2ccccc2)c1)NO" , is 4.52

Field pIC50 (entry "O=C(CCCCCCC(=O)NCCc1ccccc1)NO" ) reads 4.89
